Biological target: T1, Mouse TrkB ectodomain protein (R&D #1494-TB/CF) (mouse, UniProt P15209 32-429)
T1 construct: extracellular domain; Bought protein; also called mouse TrkB-extracellular domain protein
T1 sequence (P15209 32-429): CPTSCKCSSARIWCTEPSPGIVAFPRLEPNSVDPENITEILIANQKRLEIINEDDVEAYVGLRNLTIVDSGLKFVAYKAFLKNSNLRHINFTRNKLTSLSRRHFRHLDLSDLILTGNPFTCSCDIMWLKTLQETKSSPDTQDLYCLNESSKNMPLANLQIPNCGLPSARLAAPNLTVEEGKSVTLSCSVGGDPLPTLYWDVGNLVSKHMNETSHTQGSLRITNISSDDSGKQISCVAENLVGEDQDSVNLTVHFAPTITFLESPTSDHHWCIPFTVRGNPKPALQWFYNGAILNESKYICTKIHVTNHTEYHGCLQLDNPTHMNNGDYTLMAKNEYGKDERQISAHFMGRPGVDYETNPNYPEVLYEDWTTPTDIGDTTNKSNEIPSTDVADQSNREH
Assay: SPR (Biacore), TrkB ectodomain immobilised on CM5, antibody injected
valueKind: Kd (nM)
Note: unit nM is implicit; provide only the numeric part.

[
  {
    "binder": "TAM-163 (huTOA-1 v1.0/1.4) (antibody, human IgG1, kappa, V domains shown, IgG1 with effector-function ablating CH2; Also used biotinylated; also called humanized TOA-1; Humanized TOA1) VH: EVQLVESGGGLVQPGGSLRLSCAASGYSFTAYFMNWVRQAPGKGLEWVARINPNNGDTFYTQKFKGRFTISRDNAKNSLYLQMNSLRAEDTAVYYCARRDYFGAMDYWGQGTLVTVSS VL: DIQMTQSPSSLSASVGDRVTITCRASQTISNNLHWYQQKPGKAPKLLIKSASLAISGVPSRFSGSGSGTDFTLTISSLQPEDFATYYCQQSNSWPNTFGGGTKVEIKR",
    "Kd, nM": 11.4
  }
]

Ask: Please supply the value of reported Kd for the item huTOA-1 v1.0/2.0 (antibody, V domains shown, Human IgG; constant regions not restated; also called VH human v1.0 / VL human v2.0) VH: EVQLVESGGGLVQPGGSLRLSCAASGYSFTAYFMNWVRQAPGKGLEWVARINPNNGDTFYTQKFKGRFTISRDNAKNSLYLQMNSLRAEDTAVYYCARRDYFGAMDYWGQGTLVTVSS VL: EIVMTQSPATLSVSPGERATLSCRASQTISNNLHWYQQKPGQAPRLLIYSASLAISGIPARFSGSGSGTEFTLTISSLQSEDFAVYYCQQSNSWPNTFGGGTKVEIK
Result: 20.9

Ask: Please supply the value of reported Kd for the item mouse TOA-1 antibody (antibody, mouse IgG1, V domains shown, Hybridoma antibody, cloned with mouse IgG1 and mouse Kappa primers; also called muTOA-1; mTOA-1) VH: EVQLQQSGPELVKPGASMKISCKTSGYSFTAYFMNWVKQSHGKSLEWIGRINPNNGDTFYTQKFKGKATLTVDKSSNTAHMELLSLTSEDSAIYYCGRRDYFGAMDYWGQGTSVTVSS VL: AIVLIQSPATLSVTPGDSVSLSCRASQTISNNLHWYQQKSHESPRLLIKSASLAISGIPSRFSGSGSGTDFTLSISSVETEDFGMYFCQQSNSWPNTFGGGTKLEIK
Result: 16.3
